- Test system: Hepatitis B virus
- test_name: Inhibition of HBV recombinant Cp149 expressed in Escherichia coli BL21 (DE3) assessed as inhibition of capsid assembly at 10 uM incubated for 1 hr by immune blotting analysis relative to control
Provide the reported inhibition of each item.
Numbers only, in %.

A selection of reference data follows.
COc1cncc(C(=O)NCCNc2cc(Nc3ccc(N4CCOCC4)cc3)nc(SC)n2)c1 | 37
COc1ncccc1C(=O)N1CCN(c2cc(Nc3ccc(N4CCOCC4)cc3)nc([S+](C)[O-])n2)CC1 (stereo not given) | 33
COc1ncccc1C(=O)NCCNc1cc(Nc2ccc(F)c(F)c2)nc([S+](C)[O-])n1 (stereo not given) | 38
CSc1nc(NCCNC(=O)c2cccnc2F)cc(Nc2ccc(N3CCOCC3)cc2)n1 | 0
C[S+]([O-])c1nc(NCCNC(=O)c2cccnc2)cc(Nc2ccc(N3CCOCC3)cc2)n1 (stereo not given) | 13

# return inhibition for each item in the list
1. CS(=O)(=O)c1nc(Nc2cc(F)c(F)c(F)c2)cc(Nc2cc(F)c(F)c(F)c2)n1
2. CSc1nc(NCCNC(=O)c2cccc(Cl)n2)cc(Nc2ccc(N3CCOCC3)cc2)n1
3. COc1ncccc1C(=O)NCCNc1cc(Nc2ccc(F)cc2Cl)nc([S+](C)[O-])n1 (stereo not given)

RESULT:
69
0
43

For the 3 molecules below, give their inhibition values.
1. COc1cncc(C(=O)NCCNc2cc(Nc3ccc(N4CCOCC4)cc3)nc([S+](C)[O-])n2)c1 (stereo not given)
2. CSc1nc(NCCNC(=O)c2ncc(F)cc2F)cc(Nc2ccc(N3CCOCC3)cc2)n1
3. CS(=O)(=O)c1nc(Nc2ccc(F)cc2)cc(Nc2ccc(F)cc2)n1

RESULT:
78
1
49

Field: inhibition. Fill in for each record below.
1. CSc1nc(NCCNC(=O)c2ccc(Cl)nc2Cl)cc(Nc2ccc(N3CCOCC3)cc2)n1
2. COc1ncccc1C(=O)NCCNc1cc(Nc2ccc(I)cc2)nc([S+](C)[O-])n1 (stereo not given)
3. COc1ncccc1C(=O)NCCNc1cc(Nc2ccc(N3CCOCC3)cc2)nc(SC)n1
4. COc1ncccc1C(=O)N1CCN(c2cc(Nc3ccc(N4CCOCC4)cc3)nc(SC)n2)CC1
5. CSc1nc(NCCNC(=O)c2cccnc2)cc(Nc2ccc(N3CCOCC3)cc2)n1

RESULT:
1. 5
2. 37
3. 23
4. 31
5. 43

Consider the following items and state reported inhibition for each.
1. CS(=O)(=O)c1nc(Nc2ccc(F)c(Cl)c2)cc(Nc2ccc(F)c(Cl)c2)n1
2. COc1ncccc1C(=O)NCCNc1cc(Nc2ccc(N3CCOCC3)cc2)nc([S+](C)[O-])n1 (stereo not given)
3. CSc1nc(NCCNC(=O)c2cccnc2Cl)cc(Nc2ccc(N3CCOCC3)cc2)n1

RESULT:
57
95
2

So for COC(=O)C1=C(C)NC(c2ncc(F)cc2F)=N[C@H]1c1ccc(F)cc1Cl , the logged inhibition turned out to be 37

---

- measurement_target: CYP3A4 (Homo sapiens, UniProt P08684)
- Sequence (P08684 whole entry): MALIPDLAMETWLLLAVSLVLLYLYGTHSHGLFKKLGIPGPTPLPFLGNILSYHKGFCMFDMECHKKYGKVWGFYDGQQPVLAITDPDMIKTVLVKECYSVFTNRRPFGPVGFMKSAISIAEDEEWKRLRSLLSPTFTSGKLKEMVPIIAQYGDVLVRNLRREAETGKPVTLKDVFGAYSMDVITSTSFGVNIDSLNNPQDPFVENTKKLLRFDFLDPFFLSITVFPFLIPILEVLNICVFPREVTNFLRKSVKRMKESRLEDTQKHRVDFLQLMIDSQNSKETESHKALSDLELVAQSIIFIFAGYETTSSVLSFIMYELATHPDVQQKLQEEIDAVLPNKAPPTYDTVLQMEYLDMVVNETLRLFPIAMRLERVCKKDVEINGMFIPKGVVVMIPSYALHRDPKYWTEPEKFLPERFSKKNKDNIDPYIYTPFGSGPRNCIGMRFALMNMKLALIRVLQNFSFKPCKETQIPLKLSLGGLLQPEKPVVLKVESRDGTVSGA
- test_name: Inhibition of human recombinant CYP3A4 using ketoconazole […] at 10 uM by fluorometric assay
- Type: ADME
measured_parameter: inhibition at 10 µM (%)
Give bare numbers, in %.

Take a look at these entries with their results.
CS(=O)(=O)c1nc(Nc2ccc(F)c(Cl)c2)cc(N2CCNCC2)n1 | 60.2
COc1ncccc1C(=O)NCCNc1cc(Nc2ccc(N3CCOCC3)cc2)nc([S+](C)[O-])n1 (centres undefined) | 51.7

Report inhibition at 10 µM for each item below.
1. CS(=O)(=O)c1nc(Nc2cc(F)c(F)c(F)c2)cc(N2CCNCC2)n1
2. CS(=O)(=O)c1nc(Nc2ccc(F)c(Cl)c2)cc(NC2CCC(N)CC2)n1 (centres undefined)

RESULT:
1: 52.1; 2: 44
